ASSAY_COMMENT: NCI Yeast Anticancer Drug Screen. Data for the cln2 rad14 strain (AID 165);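 note: 0% = growth equal to vehicle treated cultures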
TEST_PARAMETERS: S. cerevisiae cln2 rad14 strain, at 50.0 µM (retest, dose inferred, filed as 5.0), stronger effect = higher value
Compounds without any hit were thinned out: in the full panel of roughly 79,000, 15% have a hit. Active and inactive are the calls of the source. Cut-off read from the data, not from the text of the source: active = growth inhibition above about 70%; inactive = the rest.
OBSERVED_PROPERTY: growth inhibition

# input Any idea what its growth inhibition is? The compound is Cc1cc(C)c(O)c(C(C)(C)C)c1
# output 8% (inactive)

# input Same question, CCN(CC)c1ccc(NC(CC(O)c2ccccc2)c2ccccc2)cc1 (configuration not stated) this time
# output -3% (inactive)

# input Same question, Cc1cccc(Cc2ccc(Cl)cc2)c1O this time
# output 99% (active)

# input Same question, CCOC(=O)Nc1cc2c(c(N)n1)N=C(c1ccccc1)CN2 this time
# output 33% (inactive)

# input Same question, CCCCCCCOc1ccc(C=O)cc1OC this time
# output 26% (inactive)

# input Same question, O=C(O)C1C2CC3CC(C2)CC1C3 (configuration not stated) this time
# output 21% (inactive)

# input Same question, CCCCCCN(CCCCCC)CCCCCC this time
# output -6% (inactive)

---

ASSAY_COMMENT: NCI Yeast Anticancer Drug Screen. Data for the bub3 strain (AID 167)
TEST_PARAMETERS: S. cerevisiae bub3 mutant strain, at 50.0 µM (retest, dose inferred, filed as 5.0), stronger effect = higher value
About 79,000 compounds went through this panel and 15% of them were active in at least one assay; those are over-represented in the sample as a whole.
Label fulfilled when growth inhibition is at or above 60%; otherwise label not fulfilled.

# input Can CN(C)c1ccccc1CC(c1c[nH]c2ccccc12)c1c[nH]c2ccccc12 be said to have growth inhibition at or above 60%?
# output fulfilled

# input Same question, CCc1ccc(/C=C/C(=O)C2CN(CC)CCC2(O)/C=C/c2ccc(CC)cc2)cc1 (stereo unspecified) this time
# output fulfilled

# input Same question, O=C1OC(CC(=O)c2ccc(Cl)cc2Cl)C(Cl)=C1Cl (stereo unspecified) this time
# output not fulfilled

# input Same question, S=c1n(-c2ccc(Cl)cc2)c2nc3ccccc3nc(/c2=N\Nc2cc(Cl)ccc2Cl)n1-c1ccc(Br)cc1 this time
# output not fulfilled

# input Same question, Cc1c2ccccc2c(C)n2c1nc1cc(Cl)c(Cl)cc12 this time
# output fulfilled

# input Same question, CCCCc1ccc2nc(C)cc(N=[N+]=[N-])c2c1 this time
# output fulfilled

# input Same question, Cc1c(N=Nc2cccc(F)c2)c(-c2ccccc2)nn1C(N)=S this time
# output fulfilled

# input Same question, CC12CCC(O)CC1CCC1C2CCC2(C)C(NC(=O)N(CCCl)N=O)CCC12 (stereo unspecified) this time
# output fulfilled

# input Same question, COc1ccc(-c2ccccc2)cc1SCCC(=O)O this time
# output not fulfilled

# input Same question, N#CC(C(=O)CCCC(=O)Nc1ccc(Cl)cc1)c1ccccc1Cl (stereo unspecified) this time
# output not fulfilled

---

ASSAY_COMMENT: NCI Yeast Anticancer Drug Screen. Data for the mlh1 rad18 strain (AID 175)
TEST_PARAMETERS: S. cerevisiae mlh1 rad18 strain growth inhibition; at 50.0 µM (retest, dose inferred, filed as 5.0); stronger effect = higher value
The panel holds about 79,000 compounds, 15% with a hit somewhere; the sample as a whole holds those more often.
Would you kindly list growth inhibition for each of these compounds?
Reply with just the number (in %).

# input Any idea what its growth inhibition is? The compound is COC(=O)C1=C(C)NC(C)=C(C(=O)OC)C1c1ccc(/[N+]([O-])=C/c2ccccc2)cc1
# output 67

# input Same question, O=C(Nc1ccc(Cl)cc1)OCCOCCOC(=O)Nc1ccc(Cl)cc1 this time
# output 96

# input Same question, CC12C=CC(=O)C=C1CCC1C3CCC(O)(C(=O)CO)C3(C)CC(O)C12F (stereo not given) this time
# output 79

# input Same question, N#CCCN(CCC#N)Cc1cc(-c2ccccc2)ccc1O this time
# output 28

# input Same question, COC(=O)c1ccc([N+](=O)[O-])o1 this time
# output 56

# input Same question, C/C=C/c1cc2c(cc1O)CC[C@@H]1[C@@H]2CC[C@]2(C)[C@@H](O)CC[C@@H]12 this time
# output 97

# input Same question, Cc1cc(C)c(O)c(C(C)(C)C)c1 this time
# output 4

# input Same question, COc1ccccc1C(=O)N(Cc1ccccc1)c1ccc(Cl)c(C(=O)OC(C)C)c1 this time
# output 31

# input Same question, CC(C)=CCc1c2c(c(O)c3c(=O)c(-c4ccc(O)cc4O)coc13)C=CC(C)(C)O2 this time
# output 95

# input Same question, CC(C)CN(CC(C)C)CN1C(=O)/C(=C/c2ccc([N+](=O)[O-])cc2)SC1=S this time
# output 66
